Species: Rattus norvegicus
Test: DrugMatrix - Regimen: Daily Repeat
Type: toxicity, organism-based, Sprague-Dawley
Parameters: regimen Daily Repeat, gender Male, age 6-8 weeks
Conditions: in vivo, po, 0 mg/kg, 120 h, tissue Plasma, route oral GAVAGE, dose level Control, time 5 day, vehicle 100 % WATER

>  <compound>
CC(C)(S)[C@@H](N)C(=O)O

>  <GLUCOSE [mg/dL]>
153.67

$$$$
>  <compound>
Cn1cnc([N+](=O)[O-])c1Sc1ncnc2nc[nH]c12

>  <GLUCOSE [mg/dL]>
133

$$$$
>  <compound>
NNC(=O)c1ccncc1

>  <GLUCOSE [mg/dL]>
161.67

$$$$
>  <compound>
CC(CCc1ccccc1)NCC(O)c1ccc(O)c(C(N)=O)c1 (stereo unspecified)

>  <GLUCOSE [mg/dL]>
161.83

$$$$
>  <compound>
O=C1NC(=O)C(c2ccccc2)(c2ccccc2)N1

>  <GLUCOSE [mg/dL]>
145.67

$$$$
>  <compound>
C[C@]12Cc3c[nH]nc3C[C@@H]1CC[C@@H]1[C@@H]2CC[C@@]2(C)[C@H]1CC[C@]2(C)O

>  <GLUCOSE [mg/dL]>
137

$$$$

====

Organism: Rattus norvegicus
Experiment: DrugMatrix - Regimen: Daily Repeat
Assay type: toxicity, organism-based, Sprague-Dawley
Set-up: regimen Daily Repeat, gender Male, age 6-8 weeks
Conditions: in vivo, ip, 8 mg/kg, […], tissue Blood, route intraperitoneal, dose level High, time 28 day, vehicle 100 % SALINE

>  <substance>
GOLD SODIUM THIOMALATE

>  <ABSOLUTE SEGMENTED NEUTROPHIL [cells/µL]>
1180

$$$$

====

Species: Rattus norvegicus
Experiment: DrugMatrix - Regimen: Daily Repeat
Format: toxicity, organism-based, Sprague-Dawley
Set-up: regimen Daily Repeat, gender Male, age 6-8 weeks
Settings: in vivo, po, 0 mg/kg, 120 h, tissue Plasma, route oral GAVAGE, dose level Control, time 5 day, […]
Threshold 1 mg/dL. URIC ACID below it: met. URIC ACID at it or above: not met.

>  <molecule>
Cn1cnc([N+](=O)[O-])c1Sc1ncnc2nc[nH]c12 [AZATHIOPRINE]

>  <group>
met

$$$$
>  <molecule>
COc1ccc2c(c1)c(CC(=O)OCC(=O)O)c(C)n2C(=O)c1ccc(Cl)cc1 [ACEMETACIN]

>  <group>
not met

$$$$
>  <molecule>
c1ccc2[nH]c(-c3cscn3)nc2c1 [THIABENDAZOLE]

>  <group>
met

$$$$
>  <molecule>
CSc1ccc2c(c1)N(CCC1CCCCN1C)c1ccccc1S2 (centres undefined) [THIORIDAZINE]

>  <group>
not met

$$$$
>  <molecule>
CC(C)n1c(/C=C/C(O)CC(O)CC(=O)O)c(-c2ccc(F)cc2)c2ccccc21 (centres undefined) [FLUVASTATIN]

>  <group>
met

$$$$
>  <molecule>
CC1=C(/C=C/C(C)=C/C=C/C(C)=C\C(=O)O)C(C)(C)CCC1 [ISOTRETINOIN]

>  <group>
met

$$$$
>  <molecule>
CCCCCCCCCc1ccc(O)cc1 [4-NONYLPHENOL]

>  <group>
not met

$$$$
>  <molecule>
CC(=O)[C@H]1CC[C@H]2[C@@H]3CCC4=CC(=O)CC[C@]4(C)[C@H]3CC[C@]12C [PROGESTERONE]

>  <group>
met

$$$$
>  <molecule>
COC1=CC(=O)C[C@@H](C)[C@]12Oc1c(Cl)c(OC)cc(OC)c1C2=O [GRISEOFULVIN]

>  <group>
not met

$$$$

====

Species: Rattus norvegicus
Experiment: DrugMatrix - Regimen: Daily Repeat
Format: toxicity, organism-based, Sprague-Dawley
Design: regimen Daily Repeat, gender Male, age 6-8 weeks
Settings: in vivo, ip, 5 mg/kg, […], tissue Blood, route intraperitoneal, dose level High, time 28 day, vehicle 100 % SALINE

>  <seqText>
CARBOPLATIN

>  <ABSOLUTE EOSINOPHIL>
89 cells/µL

$$$$

====

Reported values of NUCLEATED RED BLOOD CELLS for individual entries
Organism: Rattus norvegicus
Assay: DrugMatrix - Regimen: Daily Repeat
Assay type: toxicity, organism-based, Sprague-Dawley
Design: regimen Daily Repeat, gender Male, age 6-8 weeks
Conditions: in vivo, po, 0 mg/kg, 120 h, tissue Blood, route oral GAVAGE, dose level Control, time 5 day, […]

>  <molecule>
CSc1ccc2c(c1)N(CCC1CCCCN1C)c1ccccc1S2 (centres undefined)

>  <NUCLEATED RED BLOOD CELLS>
0.17 /100WBC

$$$$
>  <molecule>
Cn1cnc([N+](=O)[O-])c1Sc1ncnc2nc[nH]c12

>  <NUCLEATED RED BLOOD CELLS>
0.33 /100WBC

$$$$
>  <molecule>
CC1=C(/C=C/C(C)=C/C=C/C(C)=C\C(=O)O)C(C)(C)CCC1

>  <NUCLEATED RED BLOOD CELLS>
0.17 /100WBC

$$$$
>  <molecule>
CN(C)CCCC1(c2ccc(F)cc2)OCc2cc(C#N)ccc21 (centres undefined)

>  <NUCLEATED RED BLOOD CELLS>
0 /100WBC

$$$$

====

Species: Rattus norvegicus
Assay: DrugMatrix - Regimen: Daily Repeat
Assay type: toxicity, organism-based, Sprague-Dawley
Parameters: regimen Daily Repeat, gender Male, age 6-8 weeks
Settings: in vivo, iv, 0 mg/kg, 120 h, tissue Plasma, dose level Control, time 5 day, vehicle 100 % SALINE
measuredParameter: TOTAL PROTEIN (G/DL)

>  <lineNotation>
NCC[C@H](O)C(=O)N[C@@H]1C[C@H](N)[C@@H](O[C@H]2O[C@H](CN)[C@@H](O)[C@H](O)[C@H]2O)[C@H](O)[C@H]1O[C@H]1O[C@H](CO)[C@@H](O)[C@H](N)[C@H]1O

>  <recordedNumber>
5.98

$$$$
>  <lineNotation>
CC[C@@]1(O)C(=O)OCc2c1cc1n(c2=O)Cc2cc3ccccc3nc2-1

>  <recordedNumber>
6.08

$$$$
>  <lineNotation>
CC1(C)S[C@@H]2[C@H](NC(=O)[C@H](NC(=O)N3CCNC3=O)c3ccccc3)C(=O)N2[C@H]1C(=O)O

>  <recordedNumber>
6.23

$$$$
>  <lineNotation>
CN(N=O)C(=O)N[C@@H](C=O)[C@@H](O)[C@H](O)[C@H](O)CO

>  <recordedNumber>
6.05

$$$$

====

We begin with a simple list: items and their reported MEAN CORPUSCULAR HEMOGLOBIN.
Species on record: Rattus norvegicus
Experiment: DrugMatrix - Regimen: Daily Repeat
Type: toxicity, organism-based, Sprague-Dawley
Set-up: regimen Daily Repeat, gender Male, age 6-8 weeks
Settings: in vivo, po, 0 mg/kg, 120 h, tissue Blood, route oral GAVAGE, dose level Control, time 5 day, vehicle 100 % WATER

>  <compound>
Cc1cc(NS(=O)(=O)c2ccc(N)cc2)no1

>  <MEAN CORPUSCULAR HEMOGLOBIN>
24.63 pg

$$$$
>  <compound>
CN1CCN(C(=O)OC2c3nccnc3C(=O)N2c2ccc(Cl)cn2)CC1 (stereo not given)

>  <MEAN CORPUSCULAR HEMOGLOBIN>
24.3 pg

$$$$
>  <compound>
NCC1(CC(=O)O)CCCCC1

>  <MEAN CORPUSCULAR HEMOGLOBIN>
25.98 pg

$$$$
>  <compound>
COc1cccc(C2(O)CCCCC2CN(C)C)c1 (stereo not given)

>  <MEAN CORPUSCULAR HEMOGLOBIN>
24.82 pg

$$$$
>  <compound>
C[C@]12Cc3c[nH]nc3C[C@@H]1CC[C@@H]1[C@@H]2CC[C@@]2(C)[C@H]1CC[C@]2(C)O

>  <MEAN CORPUSCULAR HEMOGLOBIN>
24.82 pg

$$$$
>  <compound>
NC(=O)c1ncn([C@@H]2O[C@H](CO)[C@@H](O)[C@H]2O)n1

>  <MEAN CORPUSCULAR HEMOGLOBIN>
24.72 pg

$$$$
>  <compound>
COc1ccc(C(CN(C)C)C2(O)CCCCC2)cc1 (stereo not given)

>  <MEAN CORPUSCULAR HEMOGLOBIN>
24.63 pg

$$$$
>  <compound>
CN1CCC[C@H]1c1cccnc1

>  <MEAN CORPUSCULAR HEMOGLOBIN>
25.65 pg

$$$$
>  <compound>
Fc1ccc([C@@H]2CCNC[C@H]2COc2ccc3c(c2)OCO3)cc1

>  <MEAN CORPUSCULAR HEMOGLOBIN>
24.82 pg

$$$$
>  <compound>
CC(CCc1ccccc1)NCC(O)c1ccc(O)c(C(N)=O)c1 (stereo not given)

>  <MEAN CORPUSCULAR HEMOGLOBIN>
24.42 pg

$$$$
>  <compound>
NNC(=O)c1ccncc1

>  <MEAN CORPUSCULAR HEMOGLOBIN>
23.8 pg

$$$$
>  <compound>
COc1cc2c(N3CCN(C(=O)Nc4ccc(OC(C)C)cc4)CC3)ncnc2cc1OCCCN1CCCCC1

>  <MEAN CORPUSCULAR HEMOGLOBIN>
20.55 pg

$$$$
>  <compound>
O=C1NC(=O)C(c2ccccc2)(c2ccccc2)N1

>  <MEAN CORPUSCULAR HEMOGLOBIN>
25.25 pg

$$$$
>  <compound>
CNCCC=C1c2ccccc2CCc2ccccc21

>  <MEAN CORPUSCULAR HEMOGLOBIN>
25.25 pg

$$$$
>  <compound>
CC1COc2c(N3CCN(C)CC3)c(F)cc3c(=O)c(C(=O)O)cn1c23 (stereo not given)

>  <MEAN CORPUSCULAR HEMOGLOBIN>
25.65 pg

$$$$
>  <compound>
CC1(C)S[C@@H]2[C@H](NC(=O)[C@H](N)c3ccc(O)cc3)C(=O)N2[C@H]1C(=O)O

>  <MEAN CORPUSCULAR HEMOGLOBIN>
23.15 pg

$$$$
>  <compound>
CC(C)(S)[C@@H](N)C(=O)O

>  <MEAN CORPUSCULAR HEMOGLOBIN>
24.97 pg

$$$$
>  <compound>
Cn1cnc([N+](=O)[O-])c1Sc1ncnc2nc[nH]c12

>  <MEAN CORPUSCULAR HEMOGLOBIN>
25.2 pg

$$$$
>  <compound>
Clc1ccc(C(c2ccccc2Cl)C(Cl)Cl)cc1 (stereo not given)

>  <MEAN CORPUSCULAR HEMOGLOBIN>
24.85 pg

$$$$
>  <compound>
Nc1ccc(S(=O)(=O)Nc2ccnn2-c2ccccc2)cc1

>  <MEAN CORPUSCULAR HEMOGLOBIN>
23.95 pg

$$$$
